Tested on: L1210 leukemia ip in BDF1 mice, survival T/C
Assay: NCI In Vivo Anticancer Drug Screen. Data for tumor model L1210 Leukemia (intraperitoneal) in B6D2F1 (BDF1) mice
Details: endpoint: mean survival time; dose: 25.0 mg/kg/injection; schedule: Q04DX003 (ip); vehicle: saline with Tween-80; higher = longer survival
Inconclusive results and toxic doses are left out.
measured_parameter: T/C

In the examples that follow, each entry is paired with its recorded T/C.
[[record]]
compound = "CCCCCCCCCCCCCCCCCc1nc(N)nc(N(C)C)n1"
assayed_system = "L1210 leukemia ip in BDF1 mice, survival T/C"
endpoint_result = "97 % of control"

[[record]]
compound = "CSc1ccc(NC(=O)CCl)cc1"
assayed_system = "L1210 leukemia ip in BDF1 mice, survival T/C"
endpoint_result = "97 % of control"

[[record]]
compound = "ClCC1CNC(c2ccccc2)O1 (stereo not drawn)"
assayed_system = "L1210 leukemia ip in BDF1 mice, survival T/C"
endpoint_result = "101 % of control"

[[record]]
compound = "CC(C)C1C(=O)N2CCCC2C2(O)OC(C(=O)NCCc3c[nH]c4ccccc34)(C(C)C)C(=O)N12 (stereo not drawn)"
assayed_system = "L1210 leukemia ip in BDF1 mice, survival T/C"
endpoint_result = "101 % of control"

[[record]]
compound = "COc1cccc(/C(C)=N\\NC(=O)c2ccccc2)c1"
assayed_system = "L1210 leukemia ip in BDF1 mice, survival T/C"
endpoint_result = "88 % of control"


Batch lookup, T/C per entry.
1. CCCOC(C[N+](=O)[O-])C(Cl)(Cl)Cl (stereo not drawn)
2. Cc1cc(O)c2c(c1O)C(=O)C13C(=C2O)C(=O)C2C(O)C1C1C(O)C3C(=O)C3=C(O)c4c(O)cc(C)c(O)c4C(=O)C321 (stereo not drawn)
3. CCOC(=O)NCC(CCN(C)CC)(c1cccc2ccccc12)C(C)C (stereo not drawn)

[reply]
104 % of control
106 % of control
98 % of control

###

System: L1210 leukemia ip in BDF1 mice, survival T/C
Assay: NCI In Vivo Anticancer Drug Screen. Data for tumor model L1210 Leukemia (intraperitoneal) in B6D2F1 (BDF1) mice
Conditions: endpoint: mean survival time; dose: 50.0 mg/kg/injection; schedule: Q01DX001 (ip); vehicle: carboxymethylcellulose (CMC); higher = longer survival
Toxic doses and inconclusive results are not listed.
For each of the compounds below, state its T/C.

[[record]]
compound = "O=C(O)COc1cc(Cl)c(Cl)cc1Cl"
assayed_system = "L1210 leukemia ip in BDF1 mice, survival T/C"
endpoint_result = "102 % of control"


Please give T/C, item by item, for the list that follows.
1. CC(C)(C)C1CCC2(CC1)CC(=O)N(N1CCCCCC1)C(=O)C2
2. O=C1O/C(=C2\OCc3ccccc32)c2ccccc21
3. CCOc1cc(/C=N\Nc2nnc(C)n2N)c(C)cc1N(CCCl)CCCl
4. CN1c2ccccc2Sc2ccccc21
5. CS(=O)c1ccc2c(c1)-c1ccccc1C2=O (centres undefined)
6. O=C(Oc1ccc(Cl)cc1Cl)Oc1ccc(Cl)cc1Cl
7. O=C(C1CCC2c3ccccc3CCC2C1C(=O)N1CCCCC1)N1CCCCC1 (centres undefined)
8. NOCC(=O)O

[reply]
1: 95 % of control; 2: 91 % of control; 3: 120 % of control; 4: 94 % of control; 5: 95 % of control; 6: 98 % of control; 7: 103 % of control; 8: 95 % of control

Field: T/C. Fill in for each record below.
1. C[C@H]1C[C@H]2[C@@H]3CC[C@](O)(C(=O)CF)[C@@]3(C)C[C@H](O)[C@]2(F)[C@@]2(C)C=CC(=O)C=C12
2. CC(=O)OC1CC(OC2C(O)CC(OC3C(O)CC(OC4CCC5(C)C(CCC6C5CCC5(C)C(C7=CC(=O)OC7)C(O)CC65O)C4)OC3C)OC2C)OC(C)C1OC1OC(CO)C(O)C(O)C1O (centres undefined)
3. CC(=O)Nc1cc(C)cc(C)c1
4. O=c1[nH]c2c(c(=O)[nH]1)OCN(Cc1ccccc1)C2
5. NC(CSCc1ccccc1)C(=O)O (centres undefined)

[reply]
105 % of control
105 % of control
105 % of control
98 % of control
89 % of control

###

Would you kindly list T/C for each of these molecules?
Tested on: L1210 leukemia ip in BDF1 mice, survival T/C
Assay: NCI In Vivo Anticancer Drug Screen. Data for tumor model L1210 Leukemia (intraperitoneal) in B6D2F1 (BDF1) mice
Conditions: endpoint: mean survival time; dose: 100.0 mg/kg/injection; schedule: Q01DX009 (ip); vehicle: saline with Tween-80; higher = longer survival
Inconclusive results and toxic doses are left out.

Example results:
[[record]]
structure_notation = "CCOC(=O)c1ccc(NC(=O)c2ccc(Cl)c(Cl)c2)cc1"
assayed_system = "L1210 leukemia ip in BDF1 mice, survival T/C"
endpoint_result = "97 % of control"

[[record]]
structure_notation = "O=C(COc1ccc(Cl)cc1)c1ccccc1"
assayed_system = "L1210 leukemia ip in BDF1 mice, survival T/C"
endpoint_result = "99 % of control"

[[record]]
structure_notation = "CC(=O)Nc1ccn(CC(=O)c2ccco2)c(=O)n1"
assayed_system = "L1210 leukemia ip in BDF1 mice, survival T/C"
endpoint_result = "102 % of control"

[[record]]
structure_notation = "CCCCCCCCCCCCCCCCOc1ccccc1C(C)=O"
assayed_system = "L1210 leukemia ip in BDF1 mice, survival T/C"
endpoint_result = "92 % of control"

[[record]]
structure_notation = "O=c1[nH]cccc1[N+](=O)[O-]"
assayed_system = "L1210 leukemia ip in BDF1 mice, survival T/C"
endpoint_result = "95 % of control"

[[record]]
structure_notation = "Cc1cc(N(CCCOS(C)(=O)=O)CCCOS(C)(=O)=O)ccc1C=Nc1cc(Br)c(O)c(Br)c1"
assayed_system = "L1210 leukemia ip in BDF1 mice, survival T/C"
endpoint_result = "94 % of control"


Dear reader, for each entry below, please note its T/C.
1. O=C(O)c1cc(C(=O)O)cc([N+](=O)[O-])c1
2. O=C1c2ccccc2C(=O)c2c(Nc3cccc(S(=O)(=O)N(CCO)CCO)c3)ccc(O)c21
3. C=CC1(O)CCCC1
4. Cc1ccccc1OS(=O)(=O)c1cccc([N+](=O)[O-])c1

[reply]
1: 91 % of control; 2: 97 % of control; 3: 107 % of control; 4: 93 % of control

Give me T/C for each of these molecules, listed below.
1. Cc1csc(N)c1C(N)=O
2. N#CCn1c(C(F)(F)F)nc2nc(Cl)c(Cl)nc21
3. CC(C)COC(=O)Nc1cccc(O)c1

[reply]
103 % of control
96 % of control
91 % of control

###

Tested on: L1210 leukemia ip in BDF1 mice, survival T/C
Experiment: NCI In Vivo Anticancer Drug Screen. Data for tumor model L1210 Leukemia (intraperitoneal) in B6D2F1 (BDF1) mice
Settings: endpoint: mean survival time; dose: 400.0 mg/kg/injection; schedule: Q04DX003 (ip); vehicle: Klucel (hydroxypropylcellulose) (HPC); higher = longer survival
Toxic doses and inconclusive results are not listed.
measured_parameter: T/C

[[record]]
compound = "Cc1oc2ccc(O)c(N=Nc3ccc(Cl)cc3)c2c1C"
endpoint_result = "95 % of control"

[[record]]
compound = "O=C(Nc1ccc(Cl)cc1)C(Cl)Cl"
endpoint_result = "102 % of control"

[[record]]
compound = "c1ccc(CNCC(NCc2ccccc2)c2ccccc2)cc1 (stereo not drawn)"
endpoint_result = "98 % of control"

[[record]]
compound = "CCCCCOc1ccc(C(=O)CC(=O)OCC)cc1"
endpoint_result = "93 % of control"

[[record]]
compound = "CC(=O)Oc1c(Cl)c(Cl)c(Cl)c(Cl)c1Cl"
endpoint_result = "93 % of control"


Dear colleague, could you send me T/C for each of the items below? Thanks.
1. O=C1CN(CN2CCCCC2)C(=O)CN1CN1CCCCC1
2. CCCCCCCCCCCCCCCCNS(=O)(=O)c1ccc(N2CCOCC2)c(N)c1
3. CC(C)CCOC(=O)C(O)c1ccccc1 (stereo not drawn)
4. OCC12COC(c3ccccc3)N1C(c1ccccc1)OC2 (stereo not drawn)

[reply]
["90 % of control", "94 % of control", "91 % of control", "100 % of control"]

###

System: L1210 leukemia ip in BDF1 mice, survival T/C
Assay: NCI In Vivo Anticancer Drug Screen. Data for tumor model L1210 Leukemia (intraperitoneal) in B6D2F1 (BDF1) mice
Settings: endpoint: mean survival time; dose: 400.0 mg/kg/injection; schedule: Q01DX009 (ip); vehicle: acetone; higher = longer survival
Toxic doses and inconclusive results are not listed.
Would you kindly list T/C for each of these molecules?

[[record]]
molecule = "CC1CCCC1Sc1ccccc1 (centres undefined)"
endpoint_result = "92 % of control"

[[record]]
molecule = "O=C(NCCCl)n1cncn1"
endpoint_result = "103 % of control"

[[record]]
molecule = "N#CCCNC(=O)c1ccccc1"
endpoint_result = "90 % of control"


Query molecule follows.
[ask] Enter T/C (test system L1210 leukemia ip in BDF1 mice, survival T/C) for `O=C(CCCC(O)(C1CC1)C1CC1)C1CC1`
[reply] 109 % of control
